System: HEK-293T
Assay: Incucyte cell viability with HEK293T; also: unitless GR value; below 1 slowed growth and below 0 cell loss
Assay type: toxicity, cell-based
Details: human, 12 h, 10 µM, compound concentration 10 uM, replicate number 2, timepoint 12 hours
Please use 1 for Growth Rate under 0.8 and -1 for everything else, ties included.

[
  {
    "COMPOUND": "CN(C)CCCc1cc(C(=O)Nc2ccc(-c3ccncc3)cc2)ccc1O.Cl.Cl",
    "CATEGORY": -1
  },
  {
    "COMPOUND": "Cc1sc2c(c1C)C(c1ccc(Cl)cc1)=N[C@H](CC(=O)OC(C)(C)C)c1nnc(C)n1-2",
    "CATEGORY": -1
  },
  {
    "COMPOUND": "CSc1ccccc1N1CCN(CCCCCC(=O)NC2CCCc3ccccc32)CC1.Cl (centres undefined)",
    "CATEGORY": 1
  },
  {
    "COMPOUND": "Cl.Cl.OCCOCCN1CCN(C(c2ccccc2)c2ccc(Cl)cc2)CC1 (centres undefined) [HYDROXYZINE HYDROCHLORIDE]",
    "CATEGORY": 1
  },
  {
    "COMPOUND": "CCCCCCNC(=O)Nc1ccc(S(=O)(=O)Nc2ccc(CCNC[C@H](O)COc3ccc(O)cc3)cc2)cc1",
    "CATEGORY": -1
  },
  {
    "COMPOUND": "CN1CCc2cc(Cl)c(O)cc2[C@@H](c2ccccc2)C1.Cl",
    "CATEGORY": 1
  },
  {
    "COMPOUND": "C[C@@H](c1ccc(F)cc1)n1nnc2cnc3ccc(-c4ccc5ocnc5c4)cc3c21",
    "CATEGORY": 1
  },
  {
    "COMPOUND": "COc1cc(Nc2ncc3c(n2)-c2ccc(Cl)cc2C(c2c(F)cccc2OC)=NC3)ccc1C(=O)O",
    "CATEGORY": 1
  },
  {
    "COMPOUND": "CC(C)n1cnc2c(Nc3cccc(Cl)c3)nc(N[C@H]3CCCC[C@@H]3N)nc21",
    "CATEGORY": 1
  },
  {
    "COMPOUND": "O=c1ccn([C@@H]2O[C@H](COP(=O)([O-])OP(=O)([O-])OP(=O)([O-])O)[C@@H](O)[C@H]2O)c(=O)[nH]1.[Na+].[Na+].[Na+]",
    "CATEGORY": 1
  },
  {
    "COMPOUND": "CC1=C(C)C(=O)C(C(CCCCCC(=O)O)c2ccccc2)=C(C)C1=O (centres undefined)",
    "CATEGORY": 1
  },
  {
    "COMPOUND": "O=C(c1cc(C2CC2)on1)N(C1CCCCC1)C1CCCCC1",
    "CATEGORY": 1
  },
  {
    "COMPOUND": "CCc1cc2cc(NS(=O)(=O)c3ccc(C#N)cc3)ccc2n(CC)c1=O",
    "CATEGORY": -1
  },
  {
    "COMPOUND": "CSc1nc(NC2CCCC2)c([N+](=O)[O-])c(NC2CCCC2)n1",
    "CATEGORY": -1
  },
  {
    "COMPOUND": "O=C1NCc2ccc3c(-c4cccc(Cl)c4)c[nH]c3c21",
    "CATEGORY": 1
  },
  {
    "COMPOUND": "COCCn1c(C)c(C)s/c1=N\\C(=O)C1C(C)(C)C1(C)C",
    "CATEGORY": 1
  },
  {
    "COMPOUND": "O=C(Nc1cc(C(F)(F)F)ccc1N1CCCCC1)c1ccncc1",
    "CATEGORY": -1
  },
  {
    "COMPOUND": "CN(C)C(=O)N1CC[C@H](NC2=Nc3cc(F)ccc3N(CC(F)F)c3ccc(Cl)cc32)C1",
    "CATEGORY": 1
  }
]
